System: S6 ribosomal protein (S6RP) Ser240/Ser244 phosphorylation
test.name: Phosphorylated S6RP (Ser240/Ser244) inhibitory activity in cultured cell A2780 (Meso Scale Discovery assay)
Format: cell-based
test.parameters: A2780 cells, 3 hours treatment; average±standard deviation of three independent runs
Procedure: To evaluate the inhibitory activity of the above compounds against AKT activity, AKT Ser 473 phosphorylation and phosphorylation of S6 ribosomal protein (S6RP) (a downstream factor of Akt signal) at Ser240/Ser244, which serve as indices for the activation status of AKT, were measured in extracts of cultured cells which had been treated with the above compounds. […]
For each of the compounds below, state its pIC50.
Give bare numbers, as −log10 of the molar value.

For each of the items listed, what is its pIC50?
1. CNC(=O)c1ccc2c(c1)OCn1c-2nc(-c2ccc([C@]3(N)C[C@](C)(O)C3)cc2)c1-c1ccccc1
2. C[C@]1(O)C[C@@](N)(c2ccc(-c3nc4n(c3-c3ccccc3)COc3cccnc3-4)cc2)C1
3. N[C@]1(c2ccc(-c3nc4n(c3-c3ccccc3)COc3ncccc3-4)cc2)C[C@](O)(C2CC2)C1
4. N[C@]1(c2ccc(-c3nc4n(c3-c3ccccc3)COc3ccccc3-4)cc2)C[C@](O)(C2CC2)C1
5. N[C@]1(c2ccc(-c3nc4n(c3-c3ccccc3)COc3cnccc3-4)cc2)C[C@](O)(C2CC2)C1
6. CC1(O)CC(N)(c2ccc(-c3nc4n(c3-c3ccccc3)COc3ccncc3-4)cc2)C1 (stereo not shown)

stdout:
1: 7.42; 2: 6.88; 3: 7.47; 4: 7.08; 5: 7.48; 6: 7.21

The reported S6 ribosomal protein (S6RP) Ser240/Ser244 phosphorylation pIC50 of COc1cccc2c1-c1nc(-c3ccc([C@]4(N)C[C@@](O)(C5CC5)C4)cc3)c(-c3ccccc3)n1CO2 is 7.42

* * *

Entries with reported pIC50 on human AKT2 (Homo sapiens (Human))
Sequence (P31751 whole entry): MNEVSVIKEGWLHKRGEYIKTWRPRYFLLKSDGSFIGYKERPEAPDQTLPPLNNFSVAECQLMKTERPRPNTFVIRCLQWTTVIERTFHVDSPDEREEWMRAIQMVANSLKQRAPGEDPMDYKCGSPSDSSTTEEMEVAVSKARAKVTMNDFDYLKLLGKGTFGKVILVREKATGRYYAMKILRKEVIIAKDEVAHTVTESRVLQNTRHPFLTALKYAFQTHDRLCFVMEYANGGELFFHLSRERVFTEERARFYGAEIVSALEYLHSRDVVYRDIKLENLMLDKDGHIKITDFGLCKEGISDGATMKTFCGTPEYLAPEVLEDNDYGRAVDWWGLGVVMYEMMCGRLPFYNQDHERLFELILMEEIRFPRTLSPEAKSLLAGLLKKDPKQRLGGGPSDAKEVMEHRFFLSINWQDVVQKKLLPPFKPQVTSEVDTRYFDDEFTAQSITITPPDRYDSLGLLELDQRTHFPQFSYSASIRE
Numbers only, as −log10 of the molar value.

Some entries whose results are on file:
- N[C@]1(c2ccc(-c3nc4n(c3-c3ccncc3)COc3cccc(F)c3-4)cc2)C[C@](O)(C2CC2)C1: 9.04
- CC1(O)CC(N)(c2ccc(-c3nc4n(c3-c3ccccc3)COc3cc(CO)ccc3-4)cc2)C1 (stereo not drawn): 8.57

Switching to the query record.
Record for N[C@]1(c2ccc(-c3nc4n(c3-c3ccccc3)COc3cnccc3-4)cc2)C[C@](O)(C2CC2)C1 under target or system human AKT2 (Homo sapiens (Human)): pIC50 reported as 9.32

* * *

Where a name gives a salt, the structure may show the parent alone.
Form: system (human AKT2 (Homo sapiens (Human), UniProt P31751)), quantity (log10 IC50), values below.
In plain terms, each number is the log10 of measured IC50 in nM.

Solved cases below.
- CC1(O)CC(N)(c2ccc(-c3nc4n(c3-c3ccccc3)COc3cc(C#N)ccc3-4)cc2)C1 (stereo not drawn) [Example 47]: 0.08
- C[C@]1(O)C[C@@](N)(c2ccc(-c3nc4n(c3-c3ccccc3)COc3ccc(-c5ccn[nH]5)cc3-4)cc2)C1 [Example 48]: -0.49
- COc1cccc2c1OCn1c-2nc(-c2ccc([C@]3(N)C[C@@](O)(C4CC4)C3)cc2)c1-c1ccccc1 [Example 19]: 0.30
- CNC(=O)c1ccc2c(c1)-c1nc(-c3ccc([C@]4(N)C[C@](C)(O)C4)cc3)c(-c3ccccc3)n1CO2 [Example 52]: -0.55

Dear reader, for each entry below, please note its log10 IC50.
1. CCOc1cccc2c1-c1nc(-c3ccc(C4(N)CC(C)(O)C4)cc3)c(-c3ccccc3)n1CO2 (stereo not drawn) [Example 24]
2. Cc1ccc2c(n1)-c1nc(-c3ccc(C4(N)CC(C)(O)C4)cc3)c(-c3ccccc3)n1CO2 (stereo not drawn) [Example 50]
3. NC1(c2ccc(-c3nc4n(c3-c3ccsc3)COc3ccccc3-4)cc2)CCC1 [Example 14]
4. CC1(O)CC(N)(c2ccc(-c3nc4n(c3-c3ccccc3)COc3cc(C(N)=O)ccc3-4)cc2)C1 (stereo not drawn) [Example 62]
5. CC1(O)CC(N)(c2ccc(-c3nc4n(c3-c3ccccc3)COc3cccc(F)c3-4)cc2)C1 (stereo not drawn) [Example 2]
6. COc1cccc2c1-c1nc(-c3ccc([C@]4(N)C[C@@](O)(C5CC5)C4)cc3)c(-c3ccccc3)n1CO2 [Example 16]
7. CCNC(=O)c1ccc2c(c1)-c1nc(-c3ccc(C4(N)CC(C)(O)C4)cc3)c(-c3ccccc3)n1CO2 (stereo not drawn) [Example 55]
8. N[C@]1(c2ccc(-c3nc4n(c3-c3ccccc3)COc3cccc(F)c3-4)cc2)C[C@](O)(C2CC2)C1 [Example 1]

stdout:
1: 0.26; 2: -0.07; 3: 0.73; 4: -0.40; 5: -0.30; 6: -0.46; 7: -0.51; 8: -0.54

Below is a list of compounds. For each, state its recorded log10 IC50.
1. CC1(O)CC(N)(c2ccc(-c3nc4n(c3-c3ccccc3)COc3ccc(-c5cn[nH]c5)cc3-4)cc2)C1 (stereo not drawn) [Example 49]
2. CC1(O)CC(N)(c2ccc(-c3nc4n(c3-c3ccccc3)COc3ccc(C(=O)O)cc3-4)cc2)C1 (stereo not drawn) [Example 63, hydrochloride]
3. COc1ccc2c(c1)-c1nc(-c3ccc(C4(N)CC(C)(O)C4)cc3)c(-c3ccccc3)n1CO2 (stereo not drawn) [Example 20]

stdout:
-0.38
-0.04
-0.12
